Tested on: SK-MEL-28 melanoma
assay-explanation: NCI tumour cell line growth inhibition, 384-well format; in the data active = GI50 below about 0.43 µM; inactive = the rest
Labels: active, inactive

> print(dat)
                                   compound     class
1  C#CCC(Cc1cnc2nc(N)nc(N)c2n1)c1ccc(C(=O)N[C@@H](CCC(=O)O)C(=O)O)cc1 (some centres undefined)    active
2  CC(C)(O)CS(=O)(=O)Nc1ccc2c(c1)CCN(C(=O)COc1cccnc1)C2    active
3  N[C@@H]1CCCC[C@H]1N.O=C([O-])C(=O)[O-].[Pt+4]  inactive
4   Cc1ccccc1N=Nc1ccc(NC(=O)c2ccnn2C)c(C)c1  inactive
